# ASSAY NOTES: qHTS profiling for inhibitors of Plasmodium falciparum proliferation (AID 504749);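 further: 0% = DMSO vehicle and full inhibition = artemisinin control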
# TEST CONDITIONS: P. falciparum in erythrocytes, SYBR Green DNA, 72 h; at 28.7 µM (top of the series); parasite line A
Inconclusive results are not listed.
MEASURE NAME: activity, negative = inhibition (%)
Write the number in % without appending the unit.

MOLECULE	MEASURE NAME	VALUE UNITS	RESULT
CCCC(=O)Nc1c(I)cc(I)c(C[C@H](CC)C(=O)O)c1I	activity, negative = inhibition	%	2.81
C[C@]12CCC(=O)C=C1[C@@H]1C[C@H]1[C@H]1[C@@H]3[C@@H]4C[C@H]4[C@@]4(CCC(=O)O4)[C@@]3(C)CC[C@@H]12	activity, negative = inhibition	%	-2.83
CO/N=C(/C(=O)N[C@@H]1C(=O)N2C(C(=O)O)=C(CSc3cnns3)CS[C@H]12)c1csc(N)n1	activity, negative = inhibition	%	8.36
NCCCCC(N)C(=O)O (stereo not drawn)	activity, negative = inhibition	%	-7.93
CN(C)CC[C@@](O)(c1ccccc1)c1ccccc1Cl	activity, negative = inhibition	%	-12.9
OCC1O[C@H](Oc2ccc(O)cc2)C(O)C(O)C1O (stereo partly drawn)	activity, negative = inhibition	%	-4.75
CC[C@@H]1/C=C(\C)C[C@H](C)C[C@H](OC)[C@H]2O[C@@](O)(C(=O)C(=O)N3CCCC[C@H]3C(=O)O[C@H](/C(C)=C/[C@@H]3CC[C@H](Cl)[C@H](OC)C3)[C@H](C)[C@@H](O)CC1=O)[C@H](C)C[C@@H]2OC	activity, negative = inhibition	%	10.4
O=C1Oc2ccccc2C(=O)C1C(CC(O)c1ccc(-c2ccc(Br)cc2)cc1)c1ccccc1 (stereo not drawn)	activity, negative = inhibition	%	-67.1

Prompt: # return recorded activity, negative = inhibition for input C[C@H]1OC(OC2C(O)[C@@H](O)C(OC3C(O)[C@@H](O)C(O)O[C@@H]3CO)O[C@@H]2CO)[C@H](O)C(O)C1N[C@H]1C=C(CO)[C@@H](O)[C@H](O)C1O (stereo partly drawn)
Response: -6.96

Prompt: Specify activity, negative = inhibition for C[C@@H]1CC2C3CCC4=CC(=O)C=C[C@]4(C)[C@@]3(F)[C@@H](O)C[C@]2(C)[C@@]1(O)C(=O)COC(=O)c1cccc(S(=O)(=O)O)c1 (stereo partly drawn) and stop.
Response: 4.33

Prompt: Identify activity, negative = inhibition associated with the molecule CC1CCC(O)C/C1=C\C=C1/CCCC2(C)C1CCC2C(C)/C=C/C(C)C(C)C (stereo not drawn)
Response: -1.73
